I'd appreciate it if you could supply Plant response rating, Nutsedge values for the items below.
- System: yellow nutsedge (Cyperus esculentus)
- PROTOCOL: Test C preemergence
- Format: in vivo
- EXPERIMENTAL_CONTEXT: preemergence, Rate 62 g/ha, scale 0 to 100
Give bare numbers.

Please review the entries below; each comes with its answer.
>>> reported_measurement("CCOc1cccc(N2CCC(n3ccc(C(C)C)n3)C2=O)c1 (stereo not drawn)")
20
>>> reported_measurement("CSc1cccc(N2CCC(n3ccc(C(C)(C)C)n3)C2=O)c1 (stereo not drawn)")
0
>>> reported_measurement("CC(C)c1cccc(N2CCC(n3ccc(C(C)(C)C)n3)C2=O)c1 (stereo not drawn)")
0
>>> reported_measurement("CC(C)OC(=O)c1cccc(N2CCC(n3ccc(C(C)(C)C)n3)C2=O)c1 (stereo not drawn)")
0
>>> reported_measurement("Cc1ccc(N2CCC(n3ccc(C(C)(C)C)n3)C2=O)cc1I (stereo not drawn)")
0
>>> reported_measurement("CCC(CC)c1ccn(C2CCN(c3cccc(OC(C)C)c3)C2=O)n1 (stereo not drawn)")
0
>>> reported_measurement("CCC(C)c1ccn(C2OCN(c3cccc(OC(F)F)c3)C2=O)n1 (stereo not drawn)")
60
>>> reported_measurement("CCC(C)c1ccn(C2CCN(c3ccc(Cl)c(OC)c3)C2=O)n1 (stereo not drawn)")
0
>>> reported_measurement("CCCC(C)c1ccn(C2CCN(c3ccc(Cl)c(OC)c3)C2=O)n1 (stereo not drawn)")
0
>>> reported_measurement("CC(C)(C)c1ccn(C2OCN(c3cccc(OC(F)F)c3)C2=O)n1 (stereo not drawn)")
70

Please give Plant response rating, Nutsedge, item by item, for the list that follows.
1. CC(C)(C)c1ccn(C2CCN(c3cccc(SC(F)(F)F)c3)C2=O)n1 (stereo not drawn)
2. CCC(C)Oc1cccc(N2CCC(n3ccc(C(C)(C)C)n3)C2=O)c1 (stereo not drawn)

OUTPUT:
[0, 0]

---

- System: wheat (Triticum aestivum)
- PROTOCOL: Test B postemergence
- Type: in vivo
- EXPERIMENTAL_CONTEXT: Rate 500 g/ha, scale 0 to 100, 0 is no effect, 100 is complete control, 13 to 15 days
Hi there, I'd appreciate the recorded Plant response rating, Wheat for every entry that follows.
Numbers only.

>>> reported_measurement("CC(C)(C)c1ccn(C2CCN(c3cccc([S+]([O-])C(F)(F)F)c3)C2=O)n1 (stereo not drawn)")
0
>>> reported_measurement("Cc1ccn(C2CCN(c3cccc(C(F)(F)F)c3)C2=O)n1 (stereo not drawn)")
0
>>> reported_measurement("O=C1C(n2ccc(C3CCC3)n2)SCN1c1cccc(OC(F)F)c1 (stereo not drawn)")
0

Look up Plant response rating, Wheat for the entries below, preserving their order.
1. CCCCC(CCCC)c1ccn(C2SCN(c3cccc(OC(F)(F)F)c3)C2=O)n1 (stereo not drawn)
2. CC(C)(C)c1ccn(C2OCN(c3cccc(OC(F)(F)F)c3)C2=O)n1 (stereo not drawn)
3. CC(C)(C)c1ccn(C2CCN(c3cccc(OC(F)(F)C(F)F)c3)C2=O)n1 (stereo not drawn)
4. CC(C)(C)c1ccn(C2SCN(c3cccc(OC(F)(F)F)c3)C2=O)n1 (stereo not drawn)
5. CC(C)(C)c1ccn(C2CCN(c3cccc(Br)c3)C2=O)n1 (stereo not drawn)
6. CCC(CC)c1ccn(C2OCN(c3cccc(OC(F)(F)F)c3)C2=O)n1 (stereo not drawn)

OUTPUT:
[50, 0, 0, 0, 0, 0]
